# TARGET_OR_TEST_SYSTEM: 3',5'-cyclic-AMP phosphodiesterase 4A (Homo sapiens)
# Sequence (P27815 whole entry, looked up, stated change not applied, the tested form may be a part, canonical isoform): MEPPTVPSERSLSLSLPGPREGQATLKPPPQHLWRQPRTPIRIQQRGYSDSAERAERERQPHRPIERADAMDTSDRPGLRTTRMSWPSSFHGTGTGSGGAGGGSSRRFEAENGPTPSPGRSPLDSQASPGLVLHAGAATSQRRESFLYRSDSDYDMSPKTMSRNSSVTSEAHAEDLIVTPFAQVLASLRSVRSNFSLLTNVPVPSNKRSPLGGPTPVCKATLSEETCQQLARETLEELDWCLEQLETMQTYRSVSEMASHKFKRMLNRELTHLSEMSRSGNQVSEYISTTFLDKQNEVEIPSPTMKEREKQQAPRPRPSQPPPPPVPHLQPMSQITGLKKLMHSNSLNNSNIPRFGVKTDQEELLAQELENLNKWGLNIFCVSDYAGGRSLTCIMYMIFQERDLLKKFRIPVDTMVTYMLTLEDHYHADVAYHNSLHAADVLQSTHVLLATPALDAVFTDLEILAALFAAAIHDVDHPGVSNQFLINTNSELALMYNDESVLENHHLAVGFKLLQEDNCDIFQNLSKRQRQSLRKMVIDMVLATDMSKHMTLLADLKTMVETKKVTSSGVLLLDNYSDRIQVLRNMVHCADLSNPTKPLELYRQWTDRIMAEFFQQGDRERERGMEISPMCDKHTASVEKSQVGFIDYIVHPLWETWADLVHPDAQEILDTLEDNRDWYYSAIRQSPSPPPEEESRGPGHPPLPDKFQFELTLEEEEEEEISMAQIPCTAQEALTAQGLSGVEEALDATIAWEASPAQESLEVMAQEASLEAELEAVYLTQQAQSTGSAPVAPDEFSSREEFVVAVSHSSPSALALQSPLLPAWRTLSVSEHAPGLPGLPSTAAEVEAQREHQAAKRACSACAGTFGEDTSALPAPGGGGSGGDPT
# TEST_PROTOCOL: Inhibition of human Phosphodiesterase 4A isoform using construct representing the common region of spliced variants expressed as GST-fusion proteins in Sf9 cells.
pIC50: −log10 of the molar value.
MEASUREMENT_LABEL: pIC50

Past entries and their recorded results:
# COMPOUND, QUANTITATIVE_RESULT
measured = [
    ("COc1ccc([C@H](Cc2ccncc2)c2ccccc2)cc1OC1CCCC1", 8.38),
    ("Cc1c[n+]([O-])ccc1CC(c1ccc(C(O)(C(F)(F)F)C(F)(F)F)cc1)c1ccc(OC(F)F)c(OC(F)F)c1 (racemic)", 8.68),
    ("CC(c1cc[n+]([O-])cc1)C(c1ccc(C(O)(C(F)(F)F)C(F)(F)F)cc1)c1ccc(OC(F)F)c(OC(F)F)c1 (single isomer, unassigned; diastereomer 2)", 7.41),
]

P = Cc1c[n+]([O-])cc(C)c1CC(c1ccc(C(O)(C(F)(F)F)C(F)(F)F)cc1)c1ccc(OC(F)F)c(OC(F)F)c1 (stereo unspecified)
Q = CCc1c[n+]([O-])ccc1CC(c1ccc(C(O)(C(F)(F)F)C(F)(F)F)cc1)c1ccc(OC(F)F)c(OC(F)F)c1 (stereo unspecified)
Hi team, can someone confirm which has the larger pIC50: P or Q ? Thanks. // output: label of the selected item
Q
(Q: 7.57, P: 7.24)

1 = [O-][n+]1ccc(CC(c2ccc(C(O)(C(F)(F)F)C(F)(F)F)cc2)c2ccc(OC(F)F)c(OC(F)F)c2)c(CO)c1 (stereo unspecified)
2 = Cc1cc(CC(c2ccc(C(O)(C(F)(F)F)C(F)(F)F)cc2)c2ccc(OC(F)F)c(OC(F)F)c2)cc[n+]1[O-] (stereo unspecified)
3 = CC(=O)c1c[n+]([O-])ccc1CC(c1ccc(C(O)(C(F)(F)F)C(F)(F)F)cc1)c1ccc(OC(F)F)c(OC(F)F)c1 (stereo unspecified)
# rank_down: sort by pIC50, max first Order the labels as requested and give them as your answer.
3, 2, 1

1 = CC(O)c1c[n+]([O-])ccc1CC(c1ccc(C(O)(C(F)(F)F)C(F)(F)F)cc1)c1ccc(OC(F)F)c(OC(F)F)c1 (stereo unspecified)
2 = [O-][n+]1ccc(CC(c2ccc(C(O)(C(F)(F)F)C(F)(F)F)cc2)c2ccc(OC(F)F)c(OC(F)F)c2)cc1 (stereo unspecified)
Smaller pIC50 value, 1 vs 2 ? Give the label of your selection.
1

----------
# TARGET_OR_TEST_SYSTEM: 3',5'-cyclic-AMP phosphodiesterase 4A (Homo sapiens)
# TEST_PROTOCOL: Inhibition of human Phosphodiesterase 4A isoform using construct representing the common region of spliced variants expressed as GST-fusion proteins in Sf9 cells.
MEASUREMENT_LABEL: IC50 (nM)

# COMPOUND, TARGET_OR_TEST_SYSTEM, IC50 (nM)
rows = [
    ("Cc1c[n+]([O-])ccc1CC(c1ccc(C(O)(C(F)(F)F)C(F)(F)F)cc1)c1ccc(OC(F)F)c(OC(F)F)c1 (single isomer, unassigned; enantiomer 2)", "3',5'-cyclic-AMP phosphodiesterase 4A (Homo sapiens)", 23),
]

a = Cc1cc(C(O)(C(F)(F)F)C(F)(F)F)ccc1C(Cc1cc[n+]([O-])cc1)c1ccc(OC(F)F)c(OC(F)F)c1 (stereo not drawn)
b = Cc1cc(C(Cc2cc[n+]([O-])cc2)c2ccc(OC(F)F)c(OC(F)F)c2)ccc1C(O)(C(F)(F)F)C(F)(F)F (stereo not drawn)
Which value of IC50 is numerically greater: that of a or that of b ? State your choice using its label.
a
